Measured solubility thermodynamic at 4 h accompanies every entry in the list below.
experiment.summary: Aqueous thermodynamic solubility of the compound at pH 6.8 measured after 4 hrs by HPLC-UV analysis
Type: physicochemical
condition.set: read-out: Therm_solubility
quantity.kind: solubility thermodynamic at 4 h (µM)

# molecular.string, quantity.kind, readout.relation, recorded.result
rows = [
    ("Cc1cn(-c2cccc(C(F)(F)F)c2)c2ccc(C(=O)NS(C)(=O)=O)cc12", "solubility thermodynamic at 4 h", ">", 820),
    ("Cc1cn(-c2cncc(C(F)(F)F)c2)c2ccc(C(=O)NS(=O)(=O)C3CC3)cc12", "solubility thermodynamic at 4 h", "=", 130),
    ("Cc1cn(-c2cncc(C(F)(F)F)c2)c2cc(F)c(C(=O)NS(=O)(=O)C3CC3)cc12", "solubility thermodynamic at 4 h", "=", 25),
    ("Cc1cn(-c2cccc(F)c2)c2ccc(C(=O)NS(=O)(=O)C3CC3)cc12", "solubility thermodynamic at 4 h", "=", 440),
    ("COc1cccc(-n2cc(C)c3cc(C(=O)NS(C)(=O)=O)ccc32)c1", "solubility thermodynamic at 4 h", "=", 580),
    ("Cc1cn(-c2cccc(F)c2)c2ccc(C(=O)NS(C)(=O)=O)cc12", "solubility thermodynamic at 4 h", "=", 600),
    ("Cc1cn(-c2ccccc2)c2ccc(C(=O)NS(C)(=O)=O)cc12", "solubility thermodynamic at 4 h", ">", 660),
]

* * *

Below, each entry is listed with its recorded IC50.
measured.target: Sodium channel protein type 5 subunit alpha/beta-1/beta-2 (Homo sapiens, UniProt Q14524)
Sequence (Q14524 whole entry): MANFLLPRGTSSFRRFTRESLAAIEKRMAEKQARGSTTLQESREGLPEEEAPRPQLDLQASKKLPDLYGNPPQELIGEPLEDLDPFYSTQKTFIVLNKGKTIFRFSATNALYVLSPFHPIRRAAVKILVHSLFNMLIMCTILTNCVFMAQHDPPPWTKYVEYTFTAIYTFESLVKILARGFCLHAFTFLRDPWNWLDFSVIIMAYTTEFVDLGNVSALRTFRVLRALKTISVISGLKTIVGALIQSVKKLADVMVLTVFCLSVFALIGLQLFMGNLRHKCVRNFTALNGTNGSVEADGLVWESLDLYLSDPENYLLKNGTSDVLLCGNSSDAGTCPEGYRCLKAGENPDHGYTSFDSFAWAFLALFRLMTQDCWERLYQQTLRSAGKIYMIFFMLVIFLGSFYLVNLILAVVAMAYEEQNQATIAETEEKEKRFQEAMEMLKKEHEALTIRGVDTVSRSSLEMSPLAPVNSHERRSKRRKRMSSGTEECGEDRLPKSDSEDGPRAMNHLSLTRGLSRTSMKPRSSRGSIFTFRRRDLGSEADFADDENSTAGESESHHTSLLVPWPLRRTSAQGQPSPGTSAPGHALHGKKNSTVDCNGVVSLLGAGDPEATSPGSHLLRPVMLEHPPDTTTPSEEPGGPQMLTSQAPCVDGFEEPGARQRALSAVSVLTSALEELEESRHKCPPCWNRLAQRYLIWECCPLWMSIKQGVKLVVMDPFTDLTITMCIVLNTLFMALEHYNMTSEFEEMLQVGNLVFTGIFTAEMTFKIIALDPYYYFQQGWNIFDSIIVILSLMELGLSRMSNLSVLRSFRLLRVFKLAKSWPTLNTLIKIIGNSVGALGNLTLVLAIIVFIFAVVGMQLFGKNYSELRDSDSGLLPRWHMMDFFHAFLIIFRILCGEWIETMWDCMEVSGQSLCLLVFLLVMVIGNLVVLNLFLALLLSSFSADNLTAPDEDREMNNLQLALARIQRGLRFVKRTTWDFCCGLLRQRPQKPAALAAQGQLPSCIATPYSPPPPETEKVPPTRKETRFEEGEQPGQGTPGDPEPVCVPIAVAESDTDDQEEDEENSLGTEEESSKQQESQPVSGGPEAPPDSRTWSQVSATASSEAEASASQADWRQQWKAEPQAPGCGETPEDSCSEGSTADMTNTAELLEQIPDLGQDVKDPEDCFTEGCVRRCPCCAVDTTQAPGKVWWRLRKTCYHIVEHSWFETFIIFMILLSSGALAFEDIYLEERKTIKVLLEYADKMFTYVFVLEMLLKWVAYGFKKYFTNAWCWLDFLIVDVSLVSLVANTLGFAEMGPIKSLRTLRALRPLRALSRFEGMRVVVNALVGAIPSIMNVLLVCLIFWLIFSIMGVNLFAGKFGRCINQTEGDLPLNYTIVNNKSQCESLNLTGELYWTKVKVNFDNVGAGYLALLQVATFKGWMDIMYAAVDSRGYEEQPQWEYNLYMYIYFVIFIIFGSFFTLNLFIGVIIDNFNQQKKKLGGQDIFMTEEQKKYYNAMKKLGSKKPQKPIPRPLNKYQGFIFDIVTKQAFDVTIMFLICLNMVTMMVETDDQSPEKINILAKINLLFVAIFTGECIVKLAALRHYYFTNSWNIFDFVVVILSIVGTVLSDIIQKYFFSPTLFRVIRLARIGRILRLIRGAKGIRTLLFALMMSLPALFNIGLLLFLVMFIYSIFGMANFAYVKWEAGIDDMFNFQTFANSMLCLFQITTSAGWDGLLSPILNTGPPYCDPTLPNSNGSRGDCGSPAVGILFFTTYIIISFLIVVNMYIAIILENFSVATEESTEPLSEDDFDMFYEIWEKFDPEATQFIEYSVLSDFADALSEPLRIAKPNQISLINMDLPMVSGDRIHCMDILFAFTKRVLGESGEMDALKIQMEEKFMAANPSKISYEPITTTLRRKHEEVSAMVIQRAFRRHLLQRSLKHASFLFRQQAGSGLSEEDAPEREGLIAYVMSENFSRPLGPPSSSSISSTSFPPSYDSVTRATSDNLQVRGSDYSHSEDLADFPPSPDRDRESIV
Sequence (O60939 whole entry, further chain): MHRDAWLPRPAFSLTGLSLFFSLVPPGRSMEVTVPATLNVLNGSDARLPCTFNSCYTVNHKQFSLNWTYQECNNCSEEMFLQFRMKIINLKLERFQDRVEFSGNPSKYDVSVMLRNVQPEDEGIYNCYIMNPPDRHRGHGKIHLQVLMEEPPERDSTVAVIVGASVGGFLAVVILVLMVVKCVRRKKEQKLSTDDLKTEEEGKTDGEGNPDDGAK
Sequence (Q07699 whole entry, further chain): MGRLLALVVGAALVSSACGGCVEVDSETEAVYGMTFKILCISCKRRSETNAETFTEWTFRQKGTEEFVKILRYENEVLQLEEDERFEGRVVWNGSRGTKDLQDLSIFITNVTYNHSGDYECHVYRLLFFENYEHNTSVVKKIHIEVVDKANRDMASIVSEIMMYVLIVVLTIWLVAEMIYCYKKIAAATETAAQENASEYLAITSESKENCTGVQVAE
experiment.summary: Inhibition of human Nav1.5/beta1/2 transfected in HEK293-A cells assessed as inhibition of channel current incubated for 5.5 mins by high-throughput electrophysiology system analysis

# molecular.string, readout.relation, IC50 / µM
measured = [
    ("Cc1cn(-c2cccnc2)c2ccc(C(=O)NS(=O)(=O)C3CC3)cc12", ">", 300),
    ("Cc1cn(-c2cncc(F)c2)c2ccc(C(=O)NS(=O)(=O)C3CC3)cc12", ">", 300),
    ("Cc1cn(-c2cccnc2)c2ccc(C(=O)NS(C)(=O)=O)cc12", ">", 300),
    ("COc1cccc(-n2cc(C)c3cc(C(=O)NS(C)(=O)=O)ccc32)c1", "=", 71),
    ("Cc1cn(-c2cncc(C(F)(F)F)c2)c2ccc(C(=O)NS(=O)(=O)C3CC3)cc12", "=", 14),
    ("Cc1cn(-c2cccc(F)c2)c2ccc(C(=O)NS(=O)(=O)C3CC3)cc12", "=", 14),
    ("Cc1cn(-c2cccc(C(F)(F)F)c2)c2cc(F)c(C(=O)NS(C)(=O)=O)cc12", "=", 14),
    ("CS(=O)(=O)NC(=O)c1cc(Cl)c(Oc2cnc(C3CC3)c(Cl)c2)cc1F", "=", 29),
    ("Cc1cn(-c2cncc(Cl)c2)c2ccc(C(=O)NS(=O)(=O)C3CC3)cc12", "=", 107),
    ("Cc1cn(-c2ccc(C(F)(F)F)nc2)c2ccc(C(=O)NS(=O)(=O)C3CC3)cc12", "=", 210),
    ("C[C@@H](c1cc(Cl)cc(Cl)c1)N1CCC(COc2cc(F)c(C(=O)NS(C)(=O)=O)cc2C2CC2)CC1", "=", 0.551),
]
